# Test system: A-375
# protocol.details: Cytotoxicity against human A375 cells by MTT assay
# Type: functional, cell-based
endpoint.name: IC50 (µM)
I only need the number, in µM, no unit after it.

Reported IC50 for `CC(C)n1c2ccccc2c2cc[n+](Cc3ccccc3)cc21` : what is it?
24.5

Reported IC50 for `C[n+]1ccc2c3ccccc3n(CCCc3ccccc3)c2c1` : what is it?
41.5

Reported IC50 for `COc1ccc(Cn2c3ccccc3c3cc[n+](Cc4ccccc4)cc32)cc1.[Br-]` : what is it?
9.5

Reported IC50 for `c1ccc(CCCn2c3ccccc3c3cc[n+](Cc4ccccc4)c(-c4ccccc4)c32)cc1` : what is it?
5.9

---

# System: BGC-823
# protocol.details: Cytotoxicity against human BGC823 cells by MTT assay
# Format: functional, cell-based
endpoint.name: pIC50
Quick note: pIC50 values are minus log10 of concentrations in mol/L.

Reported pIC50 for `CCCCCCn1c2ccccc2c2cc[n+](Cc3ccccc3)cc21` : what is it?
5.28

Reported pIC50 for `Cc1c2c(cc[n+]1Cc1ccccc1)c1ccccc1n2CCCc1ccccc1.[Br-]` : what is it?
5.16

Reported pIC50 for `[Br-].c1ccc(CCCn2c3ccccc3c3cc[n+](Cc4ccccc4)cc32)cc1` : what is it?
5.07

Reported pIC50 for `Clc1cccc(Cn2c3ccccc3c3cc[n+](Cc4ccccc4)cc32)c1` : what is it?
4.69

Reported pIC50 for `CCCCCCCCn1c2ccccc2c2cc[n+](Cc3ccccc3)cc21` : what is it?
5.60

Reported pIC50 for `O=[N+]([O-])c1ccc(C[n+]2ccc3c4ccccc4n(CCCc4ccccc4)c3c2)cc1` : what is it?
4.40

---

Task for the reader: assign each of the following compounds its reported IC50.
# Test system: A-375
# protocol.details: Cytotoxicity against human A375 cells by MTT assay
# Format: functional, cell-based

Reported IC50 for `[Br-].c1ccc(CCCn2c3ccccc3c3cc[n+](Cc4ccccc4)cc32)cc1` : what is it?
8.7 µM

Reported IC50 for `Cc1c2c(cc[n+]1Cc1ccccc1)c1ccccc1n2CCCc1ccccc1.[Br-]` : what is it?
8.5 µM

Reported IC50 for `CCCCCC[n+]1ccc2c3ccccc3n(CCCc3ccccc3)c2c1` : what is it?
2.9 µM

Reported IC50 for `CCCC[n+]1ccc2c3ccccc3n(CCCc3ccccc3)c2c1` : what is it?
12.2 µM

Reported IC50 for `c1ccc(CCCn2c3ccccc3c3cc[n+](CCc4ccccc4)cc32)cc1` : what is it?
12.2 µM

---

# Test system: MCF7
# protocol.details: Cytotoxicity against human MCF7 cells by MTT assay
# Assay type: functional, cell-based
endpoint.name: pIC50
Quick note: pIC50 values are minus log10 of concentrations in mol/L.

Reported pIC50 for `CCCCCCn1c2ccccc2c2cc[n+](Cc3ccccc3)cc21` : what is it?
4.95

Reported pIC50 for `C[n+]1ccc2c3ccccc3n(CCCc3ccccc3)c2c1` : what is it?
4.12

Reported pIC50 for `CCCC[n+]1ccc2c3ccccc3n(CCCc3ccccc3)c2c1` : what is it?
4.41

Reported pIC50 for `COc1ccc(Cn2c3ccccc3c3cc[n+](Cc4ccccc4)cc32)cc1.[Br-]` : what is it?
4.73

Reported pIC50 for `CCCCn1c2ccccc2c2cc[n+](Cc3ccccc3)cc21` : what is it?
4.47

Reported pIC50 for `CC(C)Cn1c2ccccc2c2cc[n+](Cc3ccccc3)cc21` : what is it?
4.41

---

# System: A-375
# protocol.details: Cytotoxicity against human A375 cells by MTT assay
# Assay type: functional, cell-based
endpoint.name: IC50 (µM)
I only need the number, in µM, no unit after it.

Request - read-out IC50 | tested on A-375 | molecule `Cn1c2ccccc2c2cc[n+](Cc3ccccc3)cc21`
37.3

Request - read-out IC50 | tested on A-375 | molecule `c1ccc(CCCn2c3ccccc3c3cc[n+](Cc4ccccc4)c(-c4ccsc4)c32)cc1`
27.9

Request - read-out IC50 | tested on A-375 | molecule `Fc1ccc(C[n+]2ccc3c4ccccc4n(CCCc4ccccc4)c3c2)cc1.[Cl-]`
10.4

Request - read-out IC50 | tested on A-375 | molecule `CCCCCCn1c2ccccc2c2cc[n+](Cc3ccccc3)cc21`
6.8

Request - read-out IC50 | tested on A-375 | molecule `C=CCn1c2ccccc2c2cc[n+](Cc3ccccc3)cc21`
11.3

Request - read-out IC50 | tested on A-375 | molecule `Clc1cccc(C[n+]2ccc3c4ccccc4n(CCCc4ccccc4)c3c2)c1.[Br-]`
24.6

Request - read-out IC50 | tested on A-375 | molecule `CCn1c2ccccc2c2cc[n+](Cc3ccccc3)cc21`
54.3

Request - read-out IC50 | tested on A-375 | molecule `CCCCCCCCn1c2ccccc2c2cc[n+](Cc3ccccc3)cc21`
3.1

Request - read-out IC50 | tested on A-375 | molecule `Fc1ccc(Cn2c3ccccc3c3cc[n+](Cc4ccccc4)cc32)cc1`
4.7

Request - read-out IC50 | tested on A-375 | molecule `c1ccc(Cn2c3ccccc3c3cc[n+](Cc4ccccc4)cc32)cc1`
7.8

Request - read-out IC50 | tested on A-375 | molecule `Clc1cccc(Cn2c3ccccc3c3cc[n+](Cc4ccccc4)cc32)c1`
7

Request - read-out IC50 | tested on A-375 | molecule `O=[N+]([O-])c1ccc(C[n+]2ccc3c4ccccc4n(CCCc4ccccc4)c3c2)cc1`
12.3

Request - read-out IC50 | tested on A-375 | molecule `CC[n+]1ccc2c3ccccc3n(CCCc3ccccc3)c2c1`
45.1

Request - read-out IC50 | tested on A-375 | molecule `CC(C)Cn1c2ccccc2c2cc[n+](Cc3ccccc3)cc21`
28.4

Request - read-out IC50 | tested on A-375 | molecule `c1ccc(CCCn2c3ccccc3c3cc[n+](CCCc4ccccc4)cc32)cc1`
3.2

Request - read-out IC50 | tested on A-375 | molecule `CCCCn1c2ccccc2c2cc[n+](Cc3ccccc3)cc21`
19.6

---

# System: BGC-823
# protocol.details: Cytotoxicity against human BGC823 cells by MTT assay
# Type: functional, cell-based
Task for the reader: assign each of the following molecules its reported pIC50.
Quick note: pIC50 values are minus log10 of concentrations in mol/L.

Request - read-out pIC50 | tested on BGC-823 | molecule `C[n+]1ccc2c3ccccc3n(CCCc3ccccc3)c2c1`
4.39

Request - read-out pIC50 | tested on BGC-823 | molecule `CCCCCC[n+]1ccc2c3ccccc3n(CCCc3ccccc3)c2c1`
5.64

Request - read-out pIC50 | tested on BGC-823 | molecule `CCCCn1c2ccccc2c2cc[n+](Cc3ccccc3)cc21`
4.17

Request - read-out pIC50 | tested on BGC-823 | molecule `CCCCCCCC[n+]1ccc2c3ccccc3n(CCCc3ccccc3)c2c1`
5.13

Request - read-out pIC50 | tested on BGC-823 | molecule `Fc1ccc(Cn2c3ccccc3c3cc[n+](Cc4ccccc4)cc32)cc1`
5.20

Request - read-out pIC50 | tested on BGC-823 | molecule `Clc1cccc(C[n+]2ccc3c4ccccc4n(CCCc4ccccc4)c3c2)c1.[Br-]`
5.01

Request - read-out pIC50 | tested on BGC-823 | molecule `COc1ccc(Cn2c3ccccc3c3cc[n+](Cc4ccccc4)cc32)cc1.[Br-]`
4.75

Request - read-out pIC50 | tested on BGC-823 | molecule `c1ccc(Cn2c3ccccc3c3cc[n+](Cc4ccccc4)cc32)cc1`
4.41

Request - read-out pIC50 | tested on BGC-823 | molecule `CC(C)n1c2ccccc2c2cc[n+](Cc3ccccc3)cc21`
4.21

Request - read-out pIC50 | tested on BGC-823 | molecule `CCCCCCCCCC[n+]1ccc2c3ccccc3n(CCCc3ccccc3)c2c1`
4.24

Request - read-out pIC50 | tested on BGC-823 | molecule `CC[n+]1ccc2c3ccccc3n(CCCc3ccccc3)c2c1`
4.06

Request - read-out pIC50 | tested on BGC-823 | molecule `c1ccc(CCCn2c3ccccc3c3cc[n+](Cc4ccccc4)c(-c4ccsc4)c32)cc1`
5.40

Request - read-out pIC50 | tested on BGC-823 | molecule `Fc1ccc(C[n+]2ccc3c4ccccc4n(CCCc4ccccc4)c3c2)cc1.[Cl-]`
5.09

Request - read-out pIC50 | tested on BGC-823 | molecule `c1ccc(CCCn2c3ccccc3c3cc[n+](CCc4ccccc4)cc32)cc1`
4.98

Request - read-out pIC50 | tested on BGC-823 | molecule `CCCC[n+]1ccc2c3ccccc3n(CCCc3ccccc3)c2c1`
4.81

Request - read-out pIC50 | tested on BGC-823 | molecule `COc1ccc(-c2c3c(cc[n+]2Cc2ccccc2)c2ccccc2n3CCCc2ccccc2)cc1.[Br-]`
5.49

Request - read-out pIC50 | tested on BGC-823 | molecule `CC(C)Cn1c2ccccc2c2cc[n+](Cc3ccccc3)cc21`
4.22

Request - read-out pIC50 | tested on BGC-823 | molecule `Cn1c2ccccc2c2cc[n+](Cc3ccccc3)cc21`
4.88

Request - read-out pIC50 | tested on BGC-823 | molecule `c1ccc(CCCn2c3ccccc3c3cc[n+](CCCc4ccccc4)cc32)cc1`
5.03

These measurements were taken from ChEMBL document CHEMBL2401724.
